Data origin, for the record: PubChem BioAssay (NCI)

Consider the following molecules; for each one, report its growth.
system: DU-145 prostate; experiment: NCI-60 one-dose screen, 48 h (100 = growth as untreated, 0 = no growth, -100 = all killed); conditions: 10 µM unless noted
Compounds without any hit were thinned out: in the full panel of roughly 83,000, 20% have a hit.
One number for each entry, in %.

Below, 4 molecules whose answers are already recorded.
- structure-string: "Oc1cccc2c1NCCC2"
  experimental-result: 34.8
- structure-string: "NC(=O)[C@@H]1Cc2ccccc2CN1C(=O)c1ccc2c(c1)Cc1ccccc1-2"
  experimental-result: 86
- structure-string: "COC(=O)c1cc(-c2ccc(OC)c(OC)c2)[nH]c1N/N=C/c1c(Cl)cccc1Cl"
  experimental-result: 21.2
- structure-string: "CN1CCN(Cc2ccc(NC(=O)c3cc(C#Cc4cnc(N)c5ncccc45)n(C)n3)cc2C(F)(F)F)CC1"
  experimental-result: 83.9

Turning now to a further record.
// field: growth; key: `CC(C)(C)CC(C)(C)Nc1c(-c2c(O)c3ccccc3oc2=O)nc2sccn12` ; value = 113

###

tested on: NCI/ADR-RES ovarian; test: NCI-60 one-dose screen, 48 h (100 = growth as untreated, 0 = no growth, -100 = all killed); conditions: 10 µM unless noted
Compounds without any hit were thinned out: in the full panel of roughly 83,000, 20% have a hit.
Give measured growth for each item. Keep answers brief.
Answers are plain numbers, in %.

A selection of reference data follows.
- compound: "COc1ccc(CNc2ccc3nc(CCC4CCCCC4)[nH]c3c2)cc1"
  measure-unit: "%"
  growth: 70.3
- compound: "CCOC(=O)c1ccc2c(c1)c1c(C)c3cnccc3c(C)c1n2C"
  measure-unit: "%"
  growth: -33.1

State the recorded growth for every item in the following list.
1. COc1ccc(-c2csc(NC(=O)CSc3nc(C)cc(=O)[nH]3)n2)cc1
2. COC(=O)c1cc(-c2ccc(OC)c(OC)c2)[nH]c1N/N=C/c1c(Cl)cccc1Cl
3. Cc1csc(Nc2nc(-c3cccc(Cl)c3)nc(C(Cl)(Cl)Cl)n2)n1

A)
1. 96.9
2. 26.8
3. 51.6

Items follow; give growth for each.
1. CCOC(=O)C1=CCC(n2cc(F)c(=O)[nH]c2=O)O1 (stereo not given)
2. COc1cccc2cc(N(C)c3ncnc4ccccc34)ccc12
3. O=C(CSc1nc(-c2ccccc2)cn1-c1ccc(Cl)cc1)c1ccc([N+](=O)[O-])cc1
4. CC1=C(C(=O)c2ccccc2)C(c2ccc3c(c2)OCO3)NC(=S)N1 (stereo not given)
5. O=C(NS(=O)(=O)c1ccccc1)n1cc(-c2ccncc2)c(-c2cc(O)cc(Cl)c2)n1

A)
106
8.39
91.2
43.3
97.3

###

test system: IGROV1 ovarian; assay: NCI-60 one-dose screen, 48 h; conditions: 10 µM unless noted
Compounds without any hit were thinned out: in the full panel of roughly 83,000, 20% have a hit. The source made the active and inactive calls. How the source made its calls: active means growth percent below 10; inactive means the rest.
// classify into active, inactive

Solved cases below.
- structure-string: "COc1cc(/C=C/C(=O)c2ccc(-n3cc(CN4CCN(c5cc6c(cc5F)c(=O)c(C(=O)O)cn6C5CC5)CC4)nn3)cc2)cc(OC)c1OC"
  discrete-label: "inactive"
- structure-string: "O=C(Oc1ccccc1)c1cc(O)c(O)c(O)c1"
  discrete-label: "inactive"
- structure-string: "CC(=O)OCCOc1cc(Cl)c(Cl)cc1Cl"
  discrete-label: "inactive"
- structure-string: "NCCCCCNc1noc(Cc2c[nH]c3cc(Br)ccc23)n1"
  discrete-label: "inactive"
- structure-string: "O=C(Nc1ncc(Cc2ccccc2)s1)c1cc(-c2ccccc2)nc2ccccc12"
  discrete-label: "inactive"
- structure-string: "c1ccc(Cn2cc3c(c2)-c2nc(Nc4ccccc4)ncc2CC3)cc1"
  discrete-label: "inactive"

Q) Which outcome was entered for the compound `COc1ccc(/C=N\NC(=O)c2ccc3nc(-c4ccc(Cl)cc4)[nH]c3c2)cc1` in this test?
A) inactive

Q) Query: recorded result category for `O=[N+]([O-])c1ccc(N/N=C\c2cc(Cl)ccc2O)nc1` in this test
A) inactive

Q) Short answer needed: outcome of this test for `CCNc1nc(-c2ccc(Cl)c(OC)c2)c(-c2ccnc(NCCNS(=O)(=O)c3ccc(Cl)cc3)n2)s1` ?
A) inactive

Q) So what was the verdict on `COc1ccc(N2C(=O)/C(=C/C(Cl)=C/c3ccc([N+](=O)[O-])cc3)SC2=S)cc1` in this test?
A) active

###

Can you tell me growth for the items I'm about to list?
tested on: HCT-116 colon; experiment: NCI-60 one-dose screen, 48 h (100 = growth as untreated, 0 = no growth, -100 = all killed); conditions: 10 µM unless noted
Compounds without any hit were thinned out: in the full panel of roughly 83,000, 20% have a hit. Calls of active or inactive are those of the source. The calls were made as follows: active = growth percent below 10; inactive = the rest.

Some compounds with recorded growth:
- compound: "CN1CCN(Cc2ccc(NC(=O)c3cncc(C#Cc4cnc(N)c5ncccc45)c3)cc2Cl)CC1"
  target-under-test: "HCT-116 colon"
  growth: "14.6% (inactive)"
- compound: "COc1ccc(/C=N/NC(=O)Cn2nnc3ccccc32)cc1"
  target-under-test: "HCT-116 colon"
  growth: "93.7% (inactive)"
- compound: "O=C(Nc1ccccc1C(F)(F)F)C1=NCCCCN1"
  target-under-test: "HCT-116 colon"
  growth: "99.5% (inactive)"
- compound: "COc1ccc(-c2nc(SCCC(C)C)nc(N/N=C(/C)c3ccc(N)cc3)c2C#N)cc1"
  target-under-test: "HCT-116 colon"
  growth: "94.3% (inactive)"
- compound: "CN1CCN(Cc2ccc(NC(=O)c3cncc(C#Cc4c(N)ncc5ccccc45)c3)cc2C(F)(F)F)CC1"
  target-under-test: "HCT-116 colon"
  growth: "-96.5% (active)"
- compound: "N#Cc1c(-c2ccc(F)cc2)cc(-c2cccc(Cl)c2)[nH]c1=O"
  target-under-test: "HCT-116 colon"
  growth: "67.1% (inactive)"

Each compound below has a reported value. Please supply its growth.
1. COc1ccc(C(=O)/C=C/Nc2cc(-c3ccccc3)nn2-c2ccccc2)cc1
2. CO[C@]12C=C/C(=C(/C(=O)OCc3cccnc3)C(=O)CCCCCCCC[C@]3(OC)C=C/C(=C(/C(=O)OCc4cccnc4)C(=O)CCCCCCCC1)O3)O2
3. COC1=C(OC)C(=O)C(CCCCCCCCCCO)=C(C)C1=O
4. COc1cc(-c2ccc(-c3ccc(C(=N)N)s3)s2)cc(OC)c1OC

A)
["85.9% (inactive)", "-86% (active)", "52.9% (inactive)", "-21.5% (active)"]

###

Assignment: determine reported growth for the given compounds.
tested on: HT29 colon; assay: NCI-60 one-dose screen, 48 h (100 = growth as untreated, 0 = no growth, -100 = all killed); conditions: 10 µM unless noted
The panel holds about 83,000 compounds, 20% with a hit somewhere; the sample as a whole holds those more often. Calls of active or inactive are those of the source. Rule for the calls: active = growth percent below 10; inactive = the rest.

- compound: "CC(=O)c1ccc(Nc2nccc(-c3ccc(Cl)cc3)n2)cc1"
  growth: "86.2% (inactive)"
- compound: "CCCC1Cc2cc(-n3nc(C)c4c3CC(C)(C)CC4=O)cc(NC3CCC(O)CC3)c2C(=O)N1 (stereo unspecified)"
  growth: "11.6% (inactive)"
- compound: "Cc1[nH]c(C2CC(c3ccc(C(F)(F)F)c(F)c3)=NN2C)c(C)c1C(=O)NCC(F)(F)F (stereo unspecified)"
  growth: "102% (inactive)"
- compound: "CN(CCNc1ccc(C(=N)N)cc1)c1ccc(C(=N)N)cc1"
  growth: "101% (inactive)"
- compound: "COc1cccc(CNc2nnc(C)c(C)n2)c1O"
  growth: "105% (inactive)"

Report growth for each item below.
1. CCOC(=O)C1=C(c2ccccc2)N=C2N(c3ccccc3)N=C(C(C)=O)N2C1c1ccc(Br)cc1 (stereo unspecified)
2. COC(=O)[C@H](C)NC(=O)[C@@H]1CCCN1C(=O)CNC(=O)[C@H](C)N
3. N#C/C(=C/C=C/c1ccccc1)S(=O)c1ccccc1 (stereo unspecified)
4. COC(=O)CCc1c(/C=C2\N=C(c3ccc[nH]3)C=C2OC)[nH]c(C)c1C(=O)OCc1ccccc1
5. CN(C)c1ccc(/C=C/C2=[N+](C)c3ccccc3C2(C)C)cc1
6. C/C(=N\NC(=O)c1ccc(C(C)(C)C)cc1)c1ccc(O)cc1O
7. CCOc1cc(\C=N/N=C(N)/C(N)=N\N=C/c2ccc(O)c(OCC)c2)ccc1O
8. C#CCOc1ccc(C2=NN(CCCC)C3N=C(Cl)c4ncn(CCCC)c4N23)cc1OCC#C (stereo unspecified)

A)
85.1% (inactive)
104% (inactive)
-6% (active)
9.15% (active)
12.5% (inactive)
25.3% (inactive)
-46.5% (active)
96.9% (inactive)

Each compound below has a reported value. Please supply its growth.
1. CC(=O)OCCOc1cc(Cl)c(Cl)cc1Cl
2. O=C1/C(=C/c2cccc([N+](=O)[O-])c2)COc2ccc(O)c(O)c21
3. COc1cccc(/C=C2\CCc3ccccc3C2=O)c1

A)
1: 103% (inactive); 2: -12% (active); 3: 77.1% (inactive)
